- assay.text: Quantitative highthroughput screen to assess conditional lethalithy of P12 Ichikawa cells grown in RPMI1640 with dialyzed fetal bovine serum (RPMI+ds) (AID 1963880); note: nearly all actives have a fitted effect of over 35% in size;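 for viability: 100% = DMSO wells and 0% = empty wells on each plate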
- protocol.conditions: ATP luminescence, 48 h; P12-Ichikawa viability; series mostly up to 45.8 µM
Inconclusive results are not listed. Active and inactive are the calls of the source. Calls come from the whole dose curve; as a rule, active = well fitted cell-killing curve with a large enough effect; inconclusive = small, poorly fitted or top-dose-only effect; inactive = flat fitted curve, though single readings scatter.
Choose one outcome from this list and give only that: active, inactive

Incoming: Could you check what this test reported for O=C(NC1CC1)c1cccc(-c2ccc3c(NC(=O)C4CC4)n[nH]c3c2)c1 ?
Outgoing: active

Incoming: Consider next the compound Cc1cnc(Nc2ccc(CN3CCOCC3)cc2)nc1Nc1cccc(S(=O)(=O)NC(C)(C)C)c1 in the same way.
Outgoing: active

Incoming: Consider next the compound CCC[C@H](Nc1nc(-c2ccc(NC(=O)NCC)c(OC)c2)ncc1C)c1cccnc1 in the same way.
Outgoing: active

Incoming: Consider next the compound CN1C(=O)C[C@H](C(=O)N[C@@H](Cc2cnc[nH]2)C(=O)N2CCC[C@@H]2C(N)=O)NC1=O in the same way.
Outgoing: inactive

Incoming: Consider next the compound CN1c2cc(O)c(N=NC(N)=O)cc2CC1S(=O)(=O)O (stereo unspecified) in the same way.
Outgoing: inactive

Incoming: Consider next the compound Cc1c(-c2cccc3c(CCCOc4cccc5ccccc45)c(C(=O)O)n(Cc4cccnc4)c23)c(COc2ccc(N3CCN([S+](=O)([O-])N(C)C)CC3)cc2)nn1C in the same way.
Outgoing: inactive

Incoming: Consider next the compound N#C[C@H]1C[C@H]2C[C@@H]2N1C(=O)[C@@H](N)C12CC3CC(CC(O)(C3)C1)C2 in the same way.
Outgoing: inactive

Incoming: Consider next the compound Oc1cc2c(cc1O)C1c3ccc(O)c(O)c3OCC1(O)C2 (stereo unspecified) in the same way.
Outgoing: inactive

Incoming: Consider next the compound COc1cccc2c1C(=O)c1c(O)c3c(c(O)c1C2=O)C[C@@](O)(C(C)=O)C[C@H]3O[C@H]1C[C@H](N)[C@H](O)[C@H](C)O1 in the same way.
Outgoing: active

Incoming: Consider next the compound CON=C(C(=O)N[C@@H]1C(=O)N2C(C(=O)O)=C(Cn3ccc(=N)n3CCO)CS[C@H]12)c1csc(N)n1 in the same way.
Outgoing: inactive

Incoming: Consider next the compound CN(C1CCc2c(c3ccccc3n2CC(=O)O)C1)S(=O)(=O)c1ccc(F)cc1 (stereo unspecified) in the same way.
Outgoing: active

Incoming: Consider next the compound CCN(CC)CCOc1ccc(Nc2ncc3cc(-c4c(Cl)cccc4Cl)c(=O)n(C)c3n2)cc1 in the same way.
Outgoing: active

Incoming: Consider next the compound c1cncc(CN2CCC(n3ncc4c(N5CCOCC5)nc(-c5ccc6[nH]ccc6c5)nc43)CC2)c1 in the same way.
Outgoing: active

Incoming: Consider next the compound COc1cc2c(Oc3ccc(NC(=O)C4(C(=O)Nc5ccc(F)cc5)CC4)cc3F)ccnc2cc1OCCCN1CCOCC1 in the same way.
Outgoing: active

Incoming: Consider next the compound CCN(CC)C(=S)SSC(=S)N(CC)CC in the same way.
Outgoing: active

Incoming: Consider next the compound NC(=O)c1cnc(N[C@@H]2CCCC[C@@H]2N)nc1Nc1cccc(-n2nccn2)c1 in the same way.
Outgoing: inactive

Incoming: Consider next the compound CCNC(=O)[C@H]1O[C@@H](n2cnc3c(N)nc(NCCc4ccc(CCC(=O)O)cc4)nc32)[C@H](O)[C@H]1O in the same way.
Outgoing: inactive

Incoming: Consider next the compound CO[C@@H]1[C@@H](O)[C@H](O)[C@@H](n2c3c(Cl)cccc3c3c4c(c5c6cccc(Cl)c6[nH]c5c32)C(=O)NC4=O)O[C@@H]1CO in the same way.
Outgoing: active

Incoming: Consider next the compound Cc1ncc(-c2ccnc(Nc3ccc(S(C)(=O)=O)cc3)n2)n1C(C)C in the same way.
Outgoing: active

Incoming: Consider next the compound CC=CC(=O)N(CC)c1ccccc1C in the same way.
Outgoing: inactive

Incoming: Consider next the compound CC(=O)O[C@]1(C(C)=O)CC[C@H]2[C@@H]3C=C(C)C4=CC(=O)CC[C@]4(C)[C@@H]3CC[C@@]21C in the same way.
Outgoing: inactive

Incoming: Consider next the compound O=P(O)(O)C(O)(Cc1cccnc1)P(=O)(O)O in the same way.
Outgoing: inactive

Incoming: Consider next the compound NCCc1cnc[nH]1 in the same way.
Outgoing: inactive

Incoming: Consider next the compound CCOc1cc2ncc(C#N)c(Nc3ccc(F)c(Cl)c3)c2cc1NC(=O)C=CCN(C)C in the same way.
Outgoing: active

Incoming: Consider next the compound C=CC(=O)Nc1cc2c(Nc3ccc(F)c(Cl)c3)ncnc2cc1OCCCN1CCOCC1 in the same way.
Outgoing: inactive

Incoming: Consider next the compound Cc1cccc(Nc2nc(-c3ccncc3)cs2)c1 in the same way.
Outgoing: active

Incoming: Consider next the compound O=S(=O)(O)CCSSCCS(=O)(=O)O in the same way.
Outgoing: inactive

Incoming: Consider next the compound Cn1cnc2c(F)c(Nc3ccc(Br)cc3Cl)c(C(=O)NOCCO)cc21 in the same way.
Outgoing: active

Incoming: Consider next the compound Cc1c(O)cccc1C(=O)N[C@@H](CSc1ccccc1)[C@H](O)CN1C[C@H]2CCCC[C@@H]2C[C@@H]1C(=O)NC(C)(C)C in the same way.
Outgoing: inactive

Incoming: Consider next the compound CC[C@H]1OC(=O)[C@H](C)[C@@H](O[C@H]2C[C@@](C)(OC)[C@@H](O)[C@H](C)O2)[C@H](C)[C@@H](O[C@@H]2O[C@H](C)C[C@H](N(C)C)[C@@H]2O)[C@](C)(OC)C[C@@H](C)C(=O)[C@H](C)[C@@H](O)[C@]1(C)O in the same way.
Outgoing: inactive

Incoming: Consider next the compound CC(=O)NC[C@H]1CN(c2ccc(N3CCOCC3)c(F)c2)C(=O)O1 in the same way.
Outgoing: inactive

Incoming: Consider next the compound CCOc1ccccc1N=Nc1c(C)[nH]n(-c2nc(-c3ccccc3)cs2)c1=O in the same way.
Outgoing: inactive

Incoming: Consider next the compound CCCc1nc(C)c2c(=O)[nH]c(-c3cc(S(=O)(=O)N4CCN(CC)CC4)ccc3OCC)nn12 in the same way.
Outgoing: active

Incoming: Consider next the compound CC(C)OC(=O)[C@H](C)N[P@](=O)(OC[C@H]1O[C@@H](n2ccc(=O)[nH]c2=O)[C@](C)(F)[C@H]1O)Oc1ccccc1 in the same way.
Outgoing: active

Incoming: Consider next the compound O=c1ccn([C@@H]2O[C@H](CO)[C@H](O)[C@H]2O)c(=O)[nH]1 in the same way.
Outgoing: inactive

Incoming: Consider next the compound CCC(c1ccc(O)cc1)C(CC)c1ccc(O)cc1 (stereo unspecified) in the same way.
Outgoing: inactive

====

- assay.text: Cellular viability qHTS for adrenocortical cancer (ACC) cell line SW-13 (AID 1963989);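 note: cells grown in serum-free medium with ITS supplement; % is set by controls: 0 for no effect and ±100 for the full control effect; nearly all actives have a fitted effect of over 65% in size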
- protocol.conditions: SW-13 ACC cells viability, CellTiter-Glo, 48 h; hits give low values
Inconclusive results are not listed.
readout.name: activity (max response) (%)
Lab book: enter the figure in %, no units written.

Incoming: Recorded activity (max response) of N#Cc1cc(NC(=O)C(=O)O)c(Cl)c(NC(=O)C(=O)O)c1 , please.
Outgoing: 14

Incoming: Consider next the compound CC1CCN(CCCC(=O)c2ccc(F)cc2)CC1 in the same way.
Outgoing: -0.695

Incoming: Consider next the compound NC(=O)NC1N=C([O][Al])NC1=O (stereo unspecified) in the same way.
Outgoing: -0.662

Incoming: Consider next the compound N[C@@H](C(=O)N[C@@H]1C(=O)N2C(C(=O)O)=C(Cl)CS[C@H]12)c1ccccc1 in the same way.
Outgoing: 7.53

Incoming: Consider next the compound CCCOc1ccn2c(C(C)=O)cc(-c3ccccc3S(C)(=O)=O)c2c1 in the same way.
Outgoing: 0.517

Incoming: Consider next the compound CC1=C(C(=O)Nc2cc3cn[nH]c3cc2F)C(c2ccc(C(F)(F)F)cc2)CC(=O)N1 (stereo unspecified) in the same way.
Outgoing: 5.03

Incoming: Consider next the compound C=C1CCC[C@]2(C)C=C3OC(=O)C(C)=C3C[C@@H]12 in the same way.
Outgoing: -6.22

Incoming: Consider next the compound O=C1c2ccccc2S(=O)(=O)N1CCCCN1CCN(c2ncccn2)CC1 in the same way.
Outgoing: -8.3

Incoming: Consider next the compound COC(=O)[C@H](CCCN=C(N)N)NS(=O)(=O)c1ccc(C)cc1 in the same way.
Outgoing: 6.08

Incoming: Consider next the compound Nc1ncnc2nc[nH]c12 in the same way.
Outgoing: 2.49

Incoming: Consider next the compound CC(C)C(N)C(=O)OCC(CO)OCn1cnc2c(=O)[nH]c(N)nc21 (stereo unspecified) in the same way.
Outgoing: -23

Incoming: Consider next the compound CC#CCn1c(N2CCC[C@@H](N)C2)nc2c1c(=O)n(Cc1nc(C)c3ccccc3n1)c(=O)n2C in the same way.
Outgoing: 0.332

Incoming: Consider next the compound CCN(CC)CCCC[C@H](NC(=O)[C@H](CC(C)C)NC(=O)[C@H](C)NC(=O)[C@H](Cc1ccccc1)NC(=O)c1ccc(C(C)(C)C)cc1)C(=O)N[C@@H](CO)C(=O)OC in the same way.
Outgoing: -29.2

Incoming: Consider next the compound CNCc1ccccc1 in the same way.
Outgoing: 8.2

Incoming: Consider next the compound COc1c(C)cc(NC(=O)c2nn(Cc3ccc(F)cc3)c3c2CN(C(=O)c2ccc[nH]2)C[C@]3(C)C(N)=O)cc1C in the same way.
Outgoing: -5.75

Incoming: Consider next the compound COc1cc(Cc2cnc(N)nc2N)cc(OC)c1OC in the same way.
Outgoing: -3.43

Incoming: Consider next the compound O=C1NC(=O)C(c2ccccc2[N+](=O)[O-])=C1Nc1ccc(O)c(Cl)c1 in the same way.
Outgoing: -17.3

Incoming: Consider next the compound C1CCN2C[C@@H]3C[C@@H](CN4CCCC[C@@H]34)[C@H]2C1 in the same way.
Outgoing: -0.968

Incoming: Consider next the compound COc1ccc(C(=O)NCc2ccc(OCCN(C)C)cc2)cc1OC in the same way.
Outgoing: 1.66

Incoming: Consider next the compound CC(C)C[C@H](NC(=O)[C@H](Cc1ccccc1)NC(=O)OCc1ccccc1)C(=O)C=O in the same way.
Outgoing: -18.6

Incoming: Consider next the compound OC1(c2ccc(Cl)cc2)CCNCC1 in the same way.
Outgoing: 11.1
